All figures here come from patent US20260193366A1.

# assay-target: T1, hIL-4Rα on cells (human, UniProt P24394 26-825)
# T1 sequence: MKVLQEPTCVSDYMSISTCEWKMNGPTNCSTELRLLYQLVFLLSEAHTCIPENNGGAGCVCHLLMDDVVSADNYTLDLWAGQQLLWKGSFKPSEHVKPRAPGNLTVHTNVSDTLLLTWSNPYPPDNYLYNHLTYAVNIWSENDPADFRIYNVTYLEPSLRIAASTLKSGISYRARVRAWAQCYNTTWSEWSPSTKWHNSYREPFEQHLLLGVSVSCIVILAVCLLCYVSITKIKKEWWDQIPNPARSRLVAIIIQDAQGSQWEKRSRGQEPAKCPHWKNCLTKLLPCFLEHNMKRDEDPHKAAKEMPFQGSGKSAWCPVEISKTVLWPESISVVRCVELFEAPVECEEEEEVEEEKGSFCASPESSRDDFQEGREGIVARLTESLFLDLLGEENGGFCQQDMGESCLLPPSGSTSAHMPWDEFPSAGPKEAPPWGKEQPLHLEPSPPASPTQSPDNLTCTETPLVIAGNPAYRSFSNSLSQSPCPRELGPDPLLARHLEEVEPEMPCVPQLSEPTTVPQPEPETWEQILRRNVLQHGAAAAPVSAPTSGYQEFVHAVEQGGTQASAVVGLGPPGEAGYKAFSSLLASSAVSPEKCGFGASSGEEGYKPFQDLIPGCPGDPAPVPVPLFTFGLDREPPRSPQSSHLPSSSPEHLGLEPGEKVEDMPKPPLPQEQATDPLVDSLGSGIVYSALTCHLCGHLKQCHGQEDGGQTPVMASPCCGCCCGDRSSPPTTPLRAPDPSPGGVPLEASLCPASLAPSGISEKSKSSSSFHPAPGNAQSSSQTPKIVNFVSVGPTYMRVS
# procedure-summary: FACS on HEK293 cells, competitor biotin-hIL-4
Here, each record is paired with measured IC50 data.

>  <binder>
Construct 31 (mAb443) with IgG1 YTE LALA heavy chain constant region (antibody, V domains shown) VH: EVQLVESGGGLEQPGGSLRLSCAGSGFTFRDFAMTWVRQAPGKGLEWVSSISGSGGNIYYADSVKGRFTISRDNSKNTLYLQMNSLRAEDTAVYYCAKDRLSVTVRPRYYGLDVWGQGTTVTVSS VL: DIVMTQSPLSLPVTPGEPASISCRSSQSLLYSNGYNYLDWYLQKSGQSPQLLIYLGSNRASGVPDRFSGSGSGTDFTLKISRVEAEDVGFYYCMQALQAPYTFGQGTKLEIK

>  <IC50>
0.279 nM

$$$$
>  <binder>
Construct 15 (mAb423) with IgG1 YTE LALA heavy chain constant region (antibody, V domains shown) VH: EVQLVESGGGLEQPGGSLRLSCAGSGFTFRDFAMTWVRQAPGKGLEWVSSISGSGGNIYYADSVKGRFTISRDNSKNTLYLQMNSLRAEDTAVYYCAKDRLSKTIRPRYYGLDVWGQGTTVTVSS VL: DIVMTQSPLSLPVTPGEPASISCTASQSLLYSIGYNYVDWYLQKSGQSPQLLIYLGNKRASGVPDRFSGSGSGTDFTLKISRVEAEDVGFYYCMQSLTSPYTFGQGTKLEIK

>  <IC50>
0.23 nM

$$$$
>  <binder>
Construct 24 (mAb432) with IgG1 YTE LALA heavy chain constant region (antibody, V domains shown) VH: EVQLVESGGGLEQPGGSLRLSCAGSGFTFRDFAMTWVRQAPGKGLEWVSSISGSGGNIYYADSVKGRFTISRDNSKNTLYLQMNSLRAEDTAVYYCAKDRLSIAVRPRYYGLDVWGQGTTVTVSS VL: DIVMTQSPLSLPVTPGEPASISCTASQSLLYSIGKNYVDWYLQKSGQSPQLLIYLGNNRATGVPDRFSGSGSGTDFTLKISRVEAEDVGFYYCMQSLTSPYTFGQGTKLEIK

>  <IC50>
0.234 nM

$$$$
>  <binder>
Construct 38 (mAb471) with IgG1 YTE LALA heavy chain constant region (antibody, V domains shown) VH: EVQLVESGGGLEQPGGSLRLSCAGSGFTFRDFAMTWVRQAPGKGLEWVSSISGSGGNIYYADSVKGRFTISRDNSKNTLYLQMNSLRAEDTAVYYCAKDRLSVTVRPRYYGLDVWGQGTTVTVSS VL: DIVMTQSPLSLPVTPGEPASISCRSSQSLLYSIGKNYVDWYLQKSGQSPQLLIYEGNKRASGVPDRFSGSGSGTDFTLKISRVEAEDVGFYYCMQSLTSPYTFGQGTKLEIK

>  <IC50>
0.271 nM

$$$$
>  <binder>
Construct 13 (mAb422) with IgG1 YTE LALA heavy chain constant region (antibody, V domains shown) VH: EVQLVESGGGLEQPGGSLRLSCAGSGFTFRDFAMTWVRQAPGKGLEWVSSVSGSGGNTYYADSVKGRFTISRDNSKNTLYLQMNSLRAEDTAVYYCAKDRLSVTVRPRYYGLDVWGQGTTVTVSS VL: DIVMTQSPLSLPVTPGEPASISCRSSQSVLYSIGYNYVDWYLQKSGQSPQLLIYLGNKRASGVPDRFSGSGSGTDFTLKISRVEAEDVGFYYCMQSLTSPYTFGQGTKLEIK

>  <IC50>
0.238 nM

$$$$
